Target: Human recombinant PDE10A (hPDE10A) (Homo sapiens, UniProt Q9Y233)
Construct: His tag (inferred from metal chelate purification); made in house; host or cells: Sf9 insect cells (baculovirus)
Sequence (Q9Y233 267-1055): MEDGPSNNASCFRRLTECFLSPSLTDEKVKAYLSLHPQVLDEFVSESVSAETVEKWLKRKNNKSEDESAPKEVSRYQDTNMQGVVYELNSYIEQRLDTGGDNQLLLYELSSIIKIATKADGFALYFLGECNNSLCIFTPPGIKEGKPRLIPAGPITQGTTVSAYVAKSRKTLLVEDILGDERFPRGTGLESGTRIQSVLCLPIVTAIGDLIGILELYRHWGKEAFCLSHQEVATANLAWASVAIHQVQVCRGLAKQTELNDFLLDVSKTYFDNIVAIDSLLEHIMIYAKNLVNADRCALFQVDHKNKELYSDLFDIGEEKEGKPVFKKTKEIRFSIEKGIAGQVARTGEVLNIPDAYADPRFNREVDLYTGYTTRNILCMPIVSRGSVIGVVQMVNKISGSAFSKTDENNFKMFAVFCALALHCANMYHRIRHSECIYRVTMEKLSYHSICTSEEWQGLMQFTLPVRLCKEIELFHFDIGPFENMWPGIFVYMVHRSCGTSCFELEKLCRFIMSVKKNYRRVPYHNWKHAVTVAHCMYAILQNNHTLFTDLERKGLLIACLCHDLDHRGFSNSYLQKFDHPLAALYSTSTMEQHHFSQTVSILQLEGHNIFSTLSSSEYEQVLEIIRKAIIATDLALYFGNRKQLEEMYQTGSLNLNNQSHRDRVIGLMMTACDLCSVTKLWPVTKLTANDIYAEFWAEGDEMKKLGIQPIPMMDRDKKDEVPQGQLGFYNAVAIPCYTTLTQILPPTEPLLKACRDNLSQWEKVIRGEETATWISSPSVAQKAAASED
Assay Overview: In vitro assay PDE10A, human clone (SPA, 3H-cAMP hydrolysis)
Type: biochemical
Study Conditions: human clone by default (no (r) mark); read-out: hPDE10A2 or rPDE10A2 pIC50 (converted)
Value Type: IC50 (nM)

| Molecule | Units Symbol | Result Number |
| --- | --- | --- |
| CN1CCOc2cc(C(=O)N3[C@H]4CC[C@H](c5cc(C(F)F)nc6ncnn56)[C@@H]3CC4)ccc21 [Compound 378] | nM | 407 |

I = Cc1cc([C@@H]2CN(C(=O)c3cc(C4CC4)ncc3F)CC[C@H]2C)n2ncnc2n1 [Compound 224]
II = C[C@@H]1CCN(C(=O)c2ccc3c(ccn3C)c2)C[C@H]1c1cc(C(F)F)nc2ncnn12 [Compound 327]
III = C[C@@H]1CCN(C(=O)c2cc(C(C)(C)C)on2)C[C@H]1c1cc(C(F)F)nc2ncnn12 [Compound 258]
Place the items in sequence of falling IC50. Give the order by naming the labels one after another as requested. III, I, II
